These data points were gathered from paper PMC7531004.

system: Streptococcus pyogenes SSI-9; test: Antibacterial activity assay of bead-derived peptides (three concentrations); type: cell-based; set-up: key: +++: inhibition by the 640-fold diluted peptide solution; ++: inhibition by the 160-fold diluted solution; +: inhibition by the 40-fold diluted solution; -: no inhibition; conditions: S. pyogenes, bead-derived peptide solution, three concentrations
Where a SMILES comes first, the peptide text is derived from it. [ ]: non-standard residue; d: D form. The star is where a group is joined. NHCH2CH2OH = OCCN*; For = O=C*
property-name: antibacterial activity

compound="CC(C)C[C@@H](NC(=O)[C@H](C)NC(=O)CNC(=O)[C@@H](NC=O)C(C)C)C(=O)N[C@@H](C)C(=O)N[C@H](CC(C)C)C(=O)N[C@H](C(=O)N[C@@H](C(=O)N[C@@H](Cc1c[nH]c2ccccc12)C(=O)N[C@@H](C(=O)N[C@@H](Cc1c[nH]c2ccccc12)C(=O)N[C@@H](C(=O)N[C@@H](Cc1c[nH]c2ccccc12)C(=O)N[C@@H](C(=O)N[C@@H](Cc1c[nH]c2ccccc12)C(=O)NCCO)C(C)C)[C@H](C)O)C(C)C)C(C)C)C(C)C [compound 2887] (For-VGA[dL]A[dL]V[dV]W[dV]W[dT]W[dV]W-NHCH2CH2OH)" property_name="antibacterial activity" result_value=-
compound="CC(C)[C@H](NC=O)C(=O)NCC(=O)N[C@@H](C)C(=O)N[C@@H](C(=O)N[C@@H](C)C(=O)N[C@@H](C(=O)N[C@H](C(=O)N[C@@H](C(=O)N[C@@H](Cc1c[nH]c2ccccc12)C(=O)N[C@@H](C(=O)N[C@@H](Cc1c[nH]c2ccccc12)C(=O)N[C@@H](C(=O)N[C@@H](Cc1c[nH]c2ccccc12)C(=O)N[C@@H](C(=O)N[C@@H](Cc1c[nH]c2ccccc12)C(=O)NCCO)C(C)C)C(C)C)[C@H](C)O)C(C)C)C(C)C)C(C)C)C(C)C [compound 5205] (For-VGA[dV]A[dV]V[dV]W[dT]W[dV]W[dV]W-NHCH2CH2OH)" property_name="antibacterial activity" result_value=-
